Molecular target: T1, EGFI-Cr1 N37R (human)
T1 construct: not shown: The fused constant region of human immunoglobulin gamma 1 heavy chain (Cr1)
T1 chain: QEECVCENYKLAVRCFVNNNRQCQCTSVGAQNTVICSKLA
Assay: direct ELISA, coated EGFI-Cr1 fusion, 0.1 µg/ml antibody
OBSERVATION TYPE: relative binding activity (% of WT) (%)
Only the number, expressed in %, is required.

Enquiry: What does the record list as relative binding activity (% of WT) for murine monoclonal antibody 12H8 (antibody, mouse IgG2a, V domains shown, Mouse IgG2a, kappa, from hybridoma; also called m342-12H8.3; m12H8) VH: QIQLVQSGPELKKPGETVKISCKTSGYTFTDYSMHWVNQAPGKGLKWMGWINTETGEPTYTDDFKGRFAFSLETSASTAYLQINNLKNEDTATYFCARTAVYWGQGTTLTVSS VL: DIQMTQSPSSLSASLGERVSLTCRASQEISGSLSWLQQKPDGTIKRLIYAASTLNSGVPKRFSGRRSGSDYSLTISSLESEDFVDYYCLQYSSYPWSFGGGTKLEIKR ?
Return: 94

Enquiry: What does the record list as relative binding activity (% of WT) for murine monoclonal antibody 1F10 (antibody, mouse IgG1, V domains shown, Mouse IgG1, lambda 1, from hybridoma; also called m338-1F10.3) VH: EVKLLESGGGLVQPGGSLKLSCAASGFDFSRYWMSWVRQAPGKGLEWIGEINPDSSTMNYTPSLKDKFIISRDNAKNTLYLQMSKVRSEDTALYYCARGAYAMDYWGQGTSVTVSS VL: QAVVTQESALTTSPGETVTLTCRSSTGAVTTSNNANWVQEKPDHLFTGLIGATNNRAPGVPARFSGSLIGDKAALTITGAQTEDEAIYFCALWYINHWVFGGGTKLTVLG ?
Return: 97

Enquiry: What does the record list as relative binding activity (% of WT) for murine monoclonal antibody 1G10 (antibody, mouse IgG1, V domains shown, Mouse IgG1, kappa, from hybridoma; also called m290-1G10) VH: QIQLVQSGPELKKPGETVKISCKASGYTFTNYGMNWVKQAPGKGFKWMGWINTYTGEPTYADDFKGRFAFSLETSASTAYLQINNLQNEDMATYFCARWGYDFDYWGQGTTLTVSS VL: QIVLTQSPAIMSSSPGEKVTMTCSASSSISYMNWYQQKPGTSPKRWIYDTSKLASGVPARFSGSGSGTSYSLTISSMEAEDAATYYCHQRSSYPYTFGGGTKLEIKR ?
Return: 1

Enquiry: What does the record list as relative binding activity (% of WT) for murine monoclonal antibody 6D11 (antibody, mouse IgG1, V domains shown, Mouse IgG1, kappa, from hybridoma; also called m338-6D11.8) VH: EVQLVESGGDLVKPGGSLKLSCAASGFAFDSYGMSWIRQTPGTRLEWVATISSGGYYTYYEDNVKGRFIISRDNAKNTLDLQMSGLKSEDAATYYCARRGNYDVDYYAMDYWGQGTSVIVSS VL: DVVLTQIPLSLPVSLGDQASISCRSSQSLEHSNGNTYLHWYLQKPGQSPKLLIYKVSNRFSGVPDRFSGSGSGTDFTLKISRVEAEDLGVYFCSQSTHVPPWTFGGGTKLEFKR ?
Return: 69

Data provenance is patent US20110165161A1.
